A compilation of published Ki results with Nitric oxide synthase, inducible (Homo sapiens).
Sequence (P35228 whole entry): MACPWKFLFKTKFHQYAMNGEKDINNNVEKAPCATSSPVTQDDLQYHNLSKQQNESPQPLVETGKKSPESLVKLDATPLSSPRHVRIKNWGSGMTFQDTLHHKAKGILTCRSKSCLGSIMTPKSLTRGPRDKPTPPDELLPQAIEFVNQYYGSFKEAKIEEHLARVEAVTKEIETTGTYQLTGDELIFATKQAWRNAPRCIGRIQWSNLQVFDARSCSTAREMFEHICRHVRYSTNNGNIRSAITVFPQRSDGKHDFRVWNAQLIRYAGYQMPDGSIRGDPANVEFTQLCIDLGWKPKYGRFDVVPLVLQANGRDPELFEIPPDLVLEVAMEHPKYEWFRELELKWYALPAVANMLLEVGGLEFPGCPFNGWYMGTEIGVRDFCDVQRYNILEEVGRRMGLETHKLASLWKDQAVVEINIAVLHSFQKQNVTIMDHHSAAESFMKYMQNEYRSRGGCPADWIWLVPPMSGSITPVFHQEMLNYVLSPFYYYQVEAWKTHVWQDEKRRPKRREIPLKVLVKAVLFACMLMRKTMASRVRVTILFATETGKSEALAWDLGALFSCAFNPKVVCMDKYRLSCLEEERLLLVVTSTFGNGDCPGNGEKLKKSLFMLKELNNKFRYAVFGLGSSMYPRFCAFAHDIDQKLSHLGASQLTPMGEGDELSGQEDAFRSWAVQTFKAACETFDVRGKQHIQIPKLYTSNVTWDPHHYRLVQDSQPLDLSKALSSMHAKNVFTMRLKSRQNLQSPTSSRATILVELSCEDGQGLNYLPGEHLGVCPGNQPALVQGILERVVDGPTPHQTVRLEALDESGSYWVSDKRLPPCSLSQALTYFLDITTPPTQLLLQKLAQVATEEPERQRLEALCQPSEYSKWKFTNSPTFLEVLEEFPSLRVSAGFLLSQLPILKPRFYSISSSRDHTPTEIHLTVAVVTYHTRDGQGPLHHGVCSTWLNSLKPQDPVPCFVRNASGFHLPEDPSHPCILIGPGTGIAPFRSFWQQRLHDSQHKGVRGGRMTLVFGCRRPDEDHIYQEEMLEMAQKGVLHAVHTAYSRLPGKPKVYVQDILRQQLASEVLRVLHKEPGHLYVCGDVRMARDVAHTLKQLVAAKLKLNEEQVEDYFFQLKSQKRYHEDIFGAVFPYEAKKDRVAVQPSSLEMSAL
measured metric: Ki (µM)

// known answers, use as guide
INSERT INTO assay_data (molecule, target_entity, measured_metric, quantitative_readout) VALUES
  ('CC(=N)Nc1cccc(CC(N)C(=O)O)c1 (configuration not stated)', 'Nitric oxide synthase, inducible (Homo sapiens)', 'Ki', 82),
  ('NC(N)=Nc1ccccc1CC(N)C(=O)O (configuration not stated)', 'Nitric oxide synthase, inducible (Homo sapiens)', 'Ki', 2.6),
  ('CN(N)/C(N)=N\CCC[C@H](N)C(=O)O', 'Nitric oxide synthase, inducible (Homo sapiens)', 'Ki', 34.1),
  ('CCSC(=N)Nc1ccc([N+](=O)[O-])cc1', 'Nitric oxide synthase, inducible (Homo sapiens)', 'Ki', 54);

P = CCSC(=N)Nc1cccnc1
Q = Cc1cc(N)nc(C#Cc2cc(CN(C)C)cc(F)c2F)c1.Cl.Cl
R = CCSC(=N)Nc1ccc(C(F)(F)F)cc1.Cl
// query Please order the records by their reported Ki, lowest number first. State the ranking by listing the labels in the requested order.
// result P, R, Q
(P: 23 µM, R: 37 µM, Q: 88.7 µM)
